- Test system: DeltatarO mutant
- experimental_protocol: S. aureus survival, RN4220 and DeltatarO strains – OD600, teichoic acid synthesis inhibitors, primary screen (AID 463173)
- measurement_conditions: S. aureus RN4220 wild type/DeltatarO growth, OD600, 18 h, active compounds read low, screened at 18.75 µg/mL (by protocol)
The whole screen tested about 52,000 compounds, of which about 4,300 (8.3%) were called active. The entries come from a sample that favours actives as a whole.
Overview of recorded survival for various molecules

molecule: CCOc1ccc(CCNC(=O)c2cccc(-n3c(C)nc4cccnc43)c2)cc1
survival / %: 90
--
molecule: CCCCc1ccc(NC(=O)c2cc3c(=O)n4ccccc4nc3s2)cc1
survival / %: 89
--
molecule: CCCCN(CC)C(=O)c1cc2c(=O)n3cccc(C)c3nc2s1
survival / %: 54
--
molecule: Cc1ccc(NC(=O)C2CCCN2S(=O)(=O)c2ccc3nc(-c4ccccc4)[nH]c3c2)cc1F (stereo not given)
survival / %: 71
--
molecule: CCCCN(CCCC)C(=O)c1cc2c(=O)n3cccc(C)c3nc2s1
survival / %: -13

Attribution: PubChem BioAssay AID463173
